# Tested on: Plasmodium berghei
# protocol summary: Screen against P. berghei liver stage (PbLuc), transformed with Luciferase, at 10uM
# Format: functional, HepG2
# experimental parameters: tested at 10 uM
Screen size: about 69,000 compounds; about 8,600 (12%) showed an effect of 50% or more. Only a selection was taken, and strong results are over-represented in it overall.
property measured: INHIBITION
In your response, put the unit directly after the numeric value.

compound	INHIBITION
CC(C)c1nn(C)c(N2CCOCC2)c1CNCc1nncn1C	-18.9%
CN1CCCN(c2ccc(F)cc2CNC(=O)c2cccnc2)CC1	-12.2%
COc1ccnc(N2CCN(CC(O)CN3CCOCC3)CC2)n1 (centres undefined)	4.52%
CSCC(CCO)NC(=O)Nc1cc(F)ccc1C (centres undefined)	50.4%
CSCC(CCO)NC(=O)Nc1ccc(Br)cc1 (centres undefined)	53.8%

Request the reported INHIBITION associated with CSCC(CCO)NC(=O)Nc1cc(C)ccc1C (centres undefined) 40.9%

Now the compound CSCC(C)(O)CNS(=O)(=O)Cc1ccc(F)cc1 (centres undefined) 33.7%

Let us now turn to `CN1CCC(c2cc(C(F)(F)F)n3ccnc3n2)CC1` 26.3%

---

Measured INHIBITION by item
# System: Plasmodium berghei
# protocol summary: Screen against P. berghei liver stage (PbLuc), transformed with Luciferase, at 10uM
# Assay type: functional, HepG2
# experimental parameters: tested at 10 uM
Hit rate of the full screen: of about 69,000 compounds, about 8,600 (12%) showed an effect of 50% or more. The full list was thinned out, with strong results kept by preference.
Number in %, nothing else.

Observe how each entry below is paired with its result.
compound	tgt	INHIBITION / %
O=C(CCn1cncn1)NCC1CCCC1	Plasmodium berghei	63.8
Cn1nccc1CN1CCOC(c2cccc(Nc3ccccn3)n2)C1 (configuration not stated)	Plasmodium berghei	78.6
Cn1cnnc1SCC(=O)NC1CC(=O)N(CCc2cccc(Cl)c2)C1 (configuration not stated)	Plasmodium berghei	6.29
CCCn1cnc(NC(=O)NCC2CCS(=O)(=O)C2)n1 (configuration not stated)	Plasmodium berghei	42.6
O=C(CCn1cncn1)NCC(c1ccco1)N1CCCCC1 (configuration not stated)	Plasmodium berghei	3.73
O=C(CCn1cncn1)NCC1CCS(=O)(=O)C1 (configuration not stated)	Plasmodium berghei	84.2
CN(C)c1ncc(C(=O)N2C[C@H]3CC(Oc4ccccc4)C[C@H]3C2)cn1 (some centres not stated)	Plasmodium berghei	2.35
O=C(CCn1cncn1)NCC1CCOC1 (configuration not stated)	Plasmodium berghei	54.5
O=C(CCn1cncn1)NC1CCS(=O)(=O)C1 (configuration not stated)	Plasmodium berghei	49.9
Cc1nnc(N2CCCC3(CN(Cc4ccc(C)s4)CCO3)C2)o1 (configuration not stated)	Plasmodium berghei	1.81

Dear colleague, I am looking for the recorded INHIBITION of the following compound: O=C(CCn1cncn1)NCC(c1ccco1)N1CCCC1 (configuration not stated) -49.5

Now try Cc1nc(C)n(CCC(=O)NCC2CCCOC2)n1 (configuration not stated) . 26.55

---

Recorded INHIBITION values for a group of compounds are listed next.
# System: Plasmodium berghei
# protocol summary: Screen against P. berghei liver stage (PbLuc), transformed with Luciferase, at 10uM
# Assay type: functional, HepG2
# experimental parameters: tested at 10 uM
The campaign covered roughly 69,000 compounds. About 8,600 (12%) showed an effect of 50% or more. The full list was thinned out, with strong results kept by preference.
State the value, then name its unit.

In the examples that follow, each entry is paired with its recorded INHIBITION.
compound	INHIBITION
COc1ccccc1OCCNC(=O)N1CCC(n2cncn2)CC1	3.15%
COC(=O)C(c1cc(F)ccc1F)N(C)C(=O)c1ccccn1 (centres undefined)	36.1%
O=C1CNc2ncnc(N3CCN(Cc4ccccc4)CC3)c2N1	30%

I am curious: what INHIBITION value has been reported for `c1cc(CCNc2ncnc3c2CCN(Cc2ccoc2)CC3)ccn1` ? 12.8%

Ok, now `Cc1cc(C)n(Cc2cccc(C(=O)N3CCOCC3(C)C)c2)n1` -4.23%

Ok, now CCCS(=O)(=O)N1CCOC2(COCCN(C(C)=O)C2)C1 (centres undefined) 60%

Field entry: `O=C(NCCN1CCOCC1)c1scnc1Cl` 23.7%

Origin of the recorded values: ChEMBL document CHEMBL4513216
